Cited source: PubChem BioAssay AID1159580

Experiment: chemical genetic growth profiling, strain panel (AID 1159580);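 also: tested at 20 µM; growth read once vehicle control cultures reached saturation at 30 °C; lower values mean less growth of the strain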
Settings: S. cerevisiae deletion strains, growth OD, locus YOR061W, strain CKA2, active compounds read low
The campaign covered roughly 5,500 compounds. About 2,000 (36%) were called active. Roughly 18% stayed inconclusive and do not appear here. This is one part of the list.
Label YES when normalized growth is strictly below 1; at or above that, label NO.

// known answers, use as guide
Compound	Label Value
N#Cc1ccc2[nH]cc(CCN(Cc3ccccc3)Cc3ccccc3)c2c1	YES
C[C@]12CCC3C(CC[C@]4(O)C[C@@H](O)CC[C@]34C=O)[C@@]1(O)CCC2C1=CC(=O)OC1 (stereo partly specified)	YES
Cc1cc(-c2onc(C)c2C(=O)Sc2ccccc2)no1	YES

From here, focus on the item given below.
normalized growth under 1? Item: COC1C(O)C(O[C@H]2CC[C@]3(C=O)C4C(CC[C@]3(O)C2)[C@@]2(O)CC[C@H](C3=CC(=O)OC3)[C@@]2(C)C[C@H]4OC(C)=O)OC(C)C1OC(C)=O (stereo partly specified)
NO
